Target: Recombinant human integrin αvβ5 (Homo sapiens (Human), UniProt P06756+P18084)
Sequence (P06756 31-992): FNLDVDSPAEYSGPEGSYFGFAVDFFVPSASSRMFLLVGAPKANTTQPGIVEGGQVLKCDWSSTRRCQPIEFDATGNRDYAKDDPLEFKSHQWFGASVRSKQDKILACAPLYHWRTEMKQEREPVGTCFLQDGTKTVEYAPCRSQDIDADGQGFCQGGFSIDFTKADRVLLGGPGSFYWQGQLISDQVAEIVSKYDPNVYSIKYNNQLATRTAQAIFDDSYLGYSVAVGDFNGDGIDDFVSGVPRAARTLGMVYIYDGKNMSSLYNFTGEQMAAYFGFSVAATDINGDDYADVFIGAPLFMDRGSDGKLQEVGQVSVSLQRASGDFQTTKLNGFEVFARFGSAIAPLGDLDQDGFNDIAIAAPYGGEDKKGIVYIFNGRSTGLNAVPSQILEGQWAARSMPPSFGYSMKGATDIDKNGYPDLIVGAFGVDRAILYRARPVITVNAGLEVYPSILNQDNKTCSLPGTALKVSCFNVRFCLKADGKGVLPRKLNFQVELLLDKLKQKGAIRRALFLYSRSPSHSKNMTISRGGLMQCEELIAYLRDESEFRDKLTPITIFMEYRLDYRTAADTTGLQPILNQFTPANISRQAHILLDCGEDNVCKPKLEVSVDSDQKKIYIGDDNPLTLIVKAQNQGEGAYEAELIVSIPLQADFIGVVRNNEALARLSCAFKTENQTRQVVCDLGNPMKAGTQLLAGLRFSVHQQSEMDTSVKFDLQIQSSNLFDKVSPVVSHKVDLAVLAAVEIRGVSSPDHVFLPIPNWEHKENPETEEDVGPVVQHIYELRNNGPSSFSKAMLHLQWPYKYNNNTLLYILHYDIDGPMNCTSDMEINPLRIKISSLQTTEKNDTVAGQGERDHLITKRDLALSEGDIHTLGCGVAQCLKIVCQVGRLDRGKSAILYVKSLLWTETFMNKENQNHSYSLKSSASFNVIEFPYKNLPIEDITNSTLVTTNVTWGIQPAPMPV
Sequence (P18084 24-719): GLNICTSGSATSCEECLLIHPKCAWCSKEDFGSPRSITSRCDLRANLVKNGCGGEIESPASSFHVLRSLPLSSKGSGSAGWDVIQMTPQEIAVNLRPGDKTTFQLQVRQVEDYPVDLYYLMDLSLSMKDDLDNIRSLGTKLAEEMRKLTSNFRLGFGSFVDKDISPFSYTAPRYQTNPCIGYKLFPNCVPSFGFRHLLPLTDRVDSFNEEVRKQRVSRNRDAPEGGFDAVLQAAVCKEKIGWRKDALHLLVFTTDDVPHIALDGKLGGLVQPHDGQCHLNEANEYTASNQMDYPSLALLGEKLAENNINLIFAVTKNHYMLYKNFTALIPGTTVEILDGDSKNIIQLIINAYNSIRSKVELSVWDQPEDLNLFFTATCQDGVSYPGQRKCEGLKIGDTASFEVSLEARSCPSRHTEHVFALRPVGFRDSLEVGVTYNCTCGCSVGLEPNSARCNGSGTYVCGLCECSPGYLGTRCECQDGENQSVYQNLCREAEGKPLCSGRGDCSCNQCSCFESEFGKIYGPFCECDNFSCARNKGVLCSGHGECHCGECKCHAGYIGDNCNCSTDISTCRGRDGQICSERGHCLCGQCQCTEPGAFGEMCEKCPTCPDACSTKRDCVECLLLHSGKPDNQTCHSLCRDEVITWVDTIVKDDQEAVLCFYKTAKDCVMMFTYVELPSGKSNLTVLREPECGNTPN
Test: Solid Phase Receptor Assay (SPRA) for αvβ5 function
Conditions: vitronectin-coated plate
Method: 4. Solid Phase Receptor Assay (SPRA) for αvβ5 Function Recombinant human vitronectin (R&D Systems, 2308-VN) at 0.25 μg/mL in TBS+ buffer (25 mM Tris pH 7.4, 137 mM NaCl, 2.7 mM KCl, 1 mM CaCl2, 1 mM MgCl2, 1 mM MnCl2) was added to wells (50 μL/well) of a 96-well half-well transparent microtiter plate (Greiner 675061) and incubated overnight at 4° C. […] Plates were read by colorimetric detection at 650 nm wavelength using a Tecan Safire II plate reader. […]
pIC50: −log10 of the molar value.

compound | pIC50
O=C(O)C[C@H](NC(=O)CNC(=O)c1cc(O)cc(NC2=NCC(O)CN2)c1)c1cc(Cl)cc(Br)c1 (stereo partly drawn) | 9.70
Cc1cc(Br)cc([C@H](CC(=O)O)NC(=O)CNC(=O)c2cc(O)cc(NC3=NCC(O)CN3)c2)c1 (stereo partly drawn) | 9.52
O=C(O)CC(NC(=O)CNC(=O)c1cc(O)cc(NC2=NCC(O)CN2)c1)c1cc(Br)cc(Br)c1O (stereo not drawn) [Example C7, reference compound] | 7.60
O=C(O)C[C@H](NC(=O)CNC(=O)c1cc(O)cc(NC2=NCC(O)CN2)c1)c1ccccc1 (stereo partly drawn) [Example C2, reference compound] | 9.40
O=C(O)C[C@H](NC(=O)CNC(=O)c1cncc(NC2=NCC(O)CN2)c1)c1cc(Br)cc(Br)c1 (stereo partly drawn) | 10.00
Cc1ccc(O)c(C(CC(=O)O)NC(=O)CNC(=O)c2cccc(NC(=N)N)c2)c1 (stereo not drawn) [Example C8, reference compound] | 8.30
O=C(O)C[C@H](NC(=O)CNC(=O)c1cc(O)cc(NC2=NCC(O)CN2)c1)c1cc(Br)cc(OC(F)(F)F)c1 (stereo partly drawn) | 9.22
Cc1cc(Cl)cc([C@@H](CC(=O)O)NC(=O)CNC(=O)c2cc(O)cc(NC3=NCC(O)CN3)c2)c1O (stereo partly drawn) [Example C10, reference compound] | 8.70
Cc1cc(Cl)cc([C@H](CC(=O)O)NC(=O)CNC(=O)c2cc(O)cc(NC3=NCC(O)CN3)c2)c1 (stereo partly drawn) | 9.40
Cc1cc(Cl)cc([C@@H](CC(=O)O)NC(=O)CNC(=O)c2cccc(NC3=NCCN3)c2)c1O [Example C11, reference compound] | 8.70
O=C(O)C[C@H](NC(=O)CNC(=O)c1cncc(NC2=NCC(O)CN2)c1)c1cc(Cl)cc(C(F)(F)F)c1 (stereo partly drawn) | 9.70
O=C(O)C[C@H](NC(=O)CNC(=O)c1cc(O)cc(NC2=NCC(O)CN2)c1)c1cc(Br)cc(Br)c1 (stereo partly drawn) | 9.70
O=C(O)C[C@H](NC(=O)CNC(=O)c1cc(O)cc(NC2=NCC(O)CN2)c1)c1cc(Br)cc(C(F)(F)F)c1 (stereo partly drawn) | 9.40
O=C(O)C[C@H](NC(=O)CNC(=O)c1cc(O)cc(NC2=NCC(O)CN2)c1)c1cc(Cl)cc(OC(F)(F)F)c1 (stereo partly drawn) | 9.22
O=C(O)C[C@H](NC(=O)CNC(=O)c1cc(O)cc(NC2=NCC(O)CN2)c1)c1cc(Cl)cc(Cl)c1 (stereo partly drawn) | 9.52
O=C(O)CC(NC(=O)CNC(=O)c1cc(O)cc(NC2=NCC(O)CN2)c1)c1cc(Cl)cc(Cl)c1O (stereo not drawn) [Example C3, reference compound] | 8.70
O=C(O)C[C@H](NC(=O)CNC(=O)c1cc(O)cc(NC2=NCC(O)CN2)c1)c1cc(Cl)cc(C(F)(F)F)c1 (stereo partly drawn) | 9.30
O=C(O)C[C@H](NC(=O)CNC(=O)c1cc(O)cc(NC2=NCC(O)CN2)c1)c1cc(C(F)(F)F)cc(C(F)(F)F)c1 (stereo partly drawn) | 9.00
O=C(O)C[C@H](NC(=O)CNC(=O)c1cncc(NC2=NCC(O)CN2)c1)c1cc(Br)cc(C(F)(F)F)c1 (stereo partly drawn) | 9.52
O=C(O)C[C@H](NC(=O)CNC(=O)c1cc(O)cc(NC2=NCC(O)CN2)c1)c1cc(F)cc(Br)c1 (stereo partly drawn) | 10.00
Cc1ccc(O)c(C(CC(=O)O)NC(=O)CNC(=O)c2cc(O)cc(NC3=NCC(O)CN3)c2)c1 (stereo not drawn) [Example C6, reference compound] | 9.00
